# Test system: Microsporum canis
# measurementDescription: In vitro antifungal activity against Microsporum canis expressed as MIC (mg/L)
# Type: functional
valueType: MIC

>>> print(df.to_string())
                          structureassmiles  valuetype  valuemeasured
0   CN(Cc1ccc(Nc2ccccc2)cc1)Cc1cccc2ccccc12        MIC    > 100 µg/mL
1  CC(=O)N(c1ccccc1)c1ccc(CN(C)Cc2cccc3ccccc23)cc1        MIC     3.13 µg/mL
2  CN(Cc1ccc(C(C)(C)c2ccccc2)cc1)Cc1cccc2ccsc12        MIC    0.003 µg/mL
3  CN(Cc1ccc(C(=O)c2ccccc2)cc1)Cc1cccc2ccccc12        MIC      0.1 µg/mL
4   CN(Cc1ccc(Oc2ccccc2)cc1)Cc1cccc2ccccc12        MIC      0.8 µg/mL

**Query** // fetch MIC; item: CN(Cc1ccc(C(C)(C)C)cc1)Cc1cccc2ccccc12 ; system: Microsporum canis
**Result** 0.01 µg/mL

**Query** // fetch MIC; item: C=C(c1ccccc1)c1ccc(CN(C)Cc2cccc3ccccc23)cc1 ; system: Microsporum canis
**Result** 0.01 µg/mL

**Query** // fetch MIC; item: CN(Cc1ccc(-c2ccccc2)cc1)Cc1cccc2ccccc12 ; system: Microsporum canis
**Result** > 200 µg/mL

**Query** // fetch MIC; item: CN(Cc1ccc(C(C)(C)c2ccccc2)cc1)Cc1cccc2c(Cl)csc12 ; system: Microsporum canis
**Result** 0.02 µg/mL

**Query** // fetch MIC; item: Cc1ccc(C(C)(C)c2ccc(CN(C)Cc3cccc4ccccc34)cc2)cc1 ; system: Microsporum canis
**Result** 0.1 µg/mL

**Query** // fetch MIC; item: CN(Cc1ccc(C2(c3ccccc3)CC2)cc1)Cc1cccc2ccccc12 ; system: Microsporum canis
**Result** 0.003 µg/mL

====

# Tested on: Microsporum canis
# measurementDescription: In vitro antifungal activity against Microsporum canis expressed as MIC (mg/L)
# Format: functional
Let's look at some molecules and their measured MIC.
The reply should contain only the number, in ng/mL.

>>> print(df.to_string())
                                   molecule                tgt  valuetype  valuemeasured
0   CN(Cc1ccc(Cc2ccccc2)cc1)Cc1cccc2ccccc12  Microsporum canis        MIC             50
1  CN(C/C=C/C#CC(C)(C)C)Cc1cccc2ccccc12 [TERBINAFINE]  Microsporum canis        MIC              6
2  CCN(c1ccccc1)c1ccc(CN(C)Cc2cccc3ccccc23)cc1  Microsporum canis        MIC              6
3  CN(Cc1ccc(C(C)(C)c2ccccc2)cc1)Cc1cccc2ccccc12  Microsporum canis        MIC              3

API: the following record is the query input.
**Query** // fetch MIC; item: CN(Cc1ccc(/C=C/c2ccccc2)cc1)Cc1cccc2ccccc12 ; system: Microsporum canis
**Result** 10

====

# Test system: Candida albicans
# measurementDescription: In vitro antifungal activity against Candida albicans delta124 expressed as MIC (mg/L)
# Type: functional
Let's look at some compounds and their measured MIC.
The reply should contain only the number, in µg/mL.

Example entries begin here.
>>> df
                          structureassmiles  valuetype  valuemeasured
0    CN(Cc1ccc(C(C)(C)C)cc1)Cc1cccc2ccccc12        MIC             25
1  CN(Cc1ccc(C(C)(C)c2ccccc2)cc1)Cc1cccc2c(Cl)csc12        MIC           1.56

API: the following record is the query input.
**Query** Assign MIC to the following record: CN(Cc1ccc(C2(c3ccccc3)CC2)cc1)Cc1cccc2ccccc12
**Result** 3.13

====

# System: Candida albicans
# measurementDescription: In vitro antifungal activity against Candida albicans delta124 expressed as MIC (mg/L)
# Format: functional
valueType: MIC

Example entries begin here.
                                   compound  valuemeasured
0  CC(=O)N(c1ccccc1)c1ccc(CN(C)Cc2cccc3ccccc23)cc1    > 200 µg/mL
1  CN(Cc1ccc(C(C)(C)c2ccccc2)cc1)Cc1cccc2ccccc12     1.56 µg/mL
2   CN(Cc1ccc(Oc2ccccc2)cc1)Cc1cccc2ccccc12    > 200 µg/mL
3   CN(Cc1ccc(Nc2ccccc2)cc1)Cc1cccc2ccccc12    > 200 µg/mL
4  CN(Cc1ccc(C(C)(C)c2ccccc2)cc1)Cc1cccc2ccsc12      0.8 µg/mL

**Query** // fetch MIC; item: Cc1ccc(C(C)(C)c2ccc(CN(C)Cc3cccc4ccccc34)cc2)cc1 ; system: Candida albicans
**Result** 6.25 µg/mL

**Query** // fetch MIC; item: CCN(c1ccccc1)c1ccc(CN(C)Cc2cccc3ccccc23)cc1 ; system: Candida albicans
**Result** > 200 µg/mL

**Query** // fetch MIC; item: C=C(c1ccccc1)c1ccc(CN(C)Cc2cccc3ccccc23)cc1 ; system: Candida albicans
**Result** > 200 µg/mL

====

# Tested on: Candida albicans
# measurementDescription: In vitro antifungal activity against Candida albicans delta124 expressed as MIC (mg/L)
# Assay type: functional
valueType: MIC

Example entries begin here.
                                   molecule  valuemeasured
0  CN(Cc1ccc(/C=C/c2ccccc2)cc1)Cc1cccc2ccccc12    > 200 µg/mL
1   CN(Cc1ccc(-c2ccccc2)cc1)Cc1cccc2ccccc12    > 200 µg/mL

**Query** Assign MIC to the following record: CN(C/C=C/C#CC(C)(C)C)Cc1cccc2ccccc12 [TERBINAFINE]
**Result** 25 µg/mL
